target: UniProt P22303; test: Inhibition of recombinant human AChE using acetylthiocholine iodide as substrate pretreated for 5 mins followed by substrate addition measured for 5 mins by Ellman's method
Sequence (P22303 whole entry): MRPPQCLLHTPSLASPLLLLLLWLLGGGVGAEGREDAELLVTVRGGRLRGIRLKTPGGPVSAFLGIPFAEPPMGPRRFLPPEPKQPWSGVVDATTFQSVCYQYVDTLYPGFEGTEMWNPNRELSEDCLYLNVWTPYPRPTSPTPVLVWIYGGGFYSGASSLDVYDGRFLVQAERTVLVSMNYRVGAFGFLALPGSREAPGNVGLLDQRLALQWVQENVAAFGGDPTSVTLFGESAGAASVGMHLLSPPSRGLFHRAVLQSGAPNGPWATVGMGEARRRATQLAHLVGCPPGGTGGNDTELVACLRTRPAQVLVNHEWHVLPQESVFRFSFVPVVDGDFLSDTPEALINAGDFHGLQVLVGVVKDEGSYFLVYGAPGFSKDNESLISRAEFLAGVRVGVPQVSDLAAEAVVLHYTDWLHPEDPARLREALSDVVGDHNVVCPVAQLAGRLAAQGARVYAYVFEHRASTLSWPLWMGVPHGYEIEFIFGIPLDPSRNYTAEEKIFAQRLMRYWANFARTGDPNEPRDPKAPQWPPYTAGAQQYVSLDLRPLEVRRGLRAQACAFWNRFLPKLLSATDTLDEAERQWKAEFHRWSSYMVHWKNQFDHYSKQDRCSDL
pIC50: −log10 of the molar value.
recorded_metric: pIC50

test_smiles	test_result
O=C(CCCc1c[nH]c2ccccc12)NCCC1CCN(Cc2ccccc2)CC1	5.90
Cc1[nH]c2ccccc2c1CC(=O)NCCC1CCN(Cc2ccccc2)CC1	5.14
O=C(Cc1c[nH]c2ccccc12)NCCC1CCN(Cc2ccccc2)CC1	5.45
Cn1cc(CC(=O)NCCC2CCN(Cc3ccccc3)CC2)c2ccccc21	5.85
Cn1cc(C(=O)NCCC2CCN(Cc3ccccc3)CC2)c2ccccc21	5.21
O=C(Cc1c[nH]c2ccc(Br)cc12)NCCC1CCN(Cc2ccccc2)CC1	5.85
O=C(CCc1c[nH]c2ccccc12)NCCC1CCN(Cc2ccccc2)CC1	5.23
